Each recorded value in this set is attributed to the domain aggregation screens of Martell et al. (2025).

Method: soluble fraction after stress (log2 fold change); higher = more stays soluble; pooled small domains, quantitative proteomics
Condition notes: stress: 50 degC
# reported soluble fraction (log2); entries follow
Measured quantity: soluble fraction (log2)

• HMSIGPQMAGRRVLSGDLIARLEAFEGTVVLGRGVAREDALLIATQAGHVRWEPASRRLWVDSTA = -0.458
• HMFDMLGDQIKKYRKEKKMSQEELAIPLNVVRQTVSKWENNLSVPDAELLIRLAEVLEISVAELLGT = -0.108
• HMEEQIEVPVQINGKVRSKLTVAPETDEKQIEALALADPKVQQQLEGKRVLKVIVAQKRLVNIVA = -0.0336
• HMQINLSEWVLAAREYAGPEMTQEKLAEHLGRTKANVSAMENGRSKPSFEQMMEIHRVTGYPLPYQ = -0.218
• HMDQEDAYMQVRQVFDTLLVSELSKRIFAWRFFEGKSFAEWPGAESQKFLYDTFNRILLIISAKIRRKNA = -0.0448
• HMVGGIAIGQFNVPRGSVKVTAGGRLLQEGLDYTVNYQAGRVQILDESLKNSNVPIEISTESNS = 0.229
• HMSIESPEEFNAKFPPGSEIYATNIQKNAIVQSPANAKGDVEILANSMRLTINFRFISKRDT = 0.0469
• HMPNPALESARPAFEAFLSRFSDGEAMRGPAWGLWSLLHRKGNAPTASHAAGRDGMGVLAFLRHWQWG = -0.479
• HMQIDRLFDIVYTLLRKKSATAAELAERFGVSKRTILRDIETLSVAGIPILTSPGKGGGVSISSSF = -0.881
• HMNRMKLLREQHNLSQTDLAKILNISRQSYNFYENEKRDPDTTMLIRIADFFNVSLDYLLGRTNN = -1.66
• HMTTHERHEIIELLRQVGDPMRPKEISEALGKPSGAIRFLLSKLTEEGAIKKTGYGQYTYIP = -0.359
• HMSRYQDIANDIEKDIIEKKYTRKLPEQFELAQKYQTSRVTIVHALKILQNKKLIRTVKGHGTFITS = -1.4
• HMDLDIQNYNLDEILELFKVSYDFDETELKKAHKMYLMTHPDKSNLNPNIFLFFVQAYDILRKLYEFR = -0.468
• HMGDTPVDFSEFIRWVDTGVVDRVELTGNEIVGTSSSGERFSTYAPPQYEGLGNKLIERDIVVVATAA = -0.164
• HMSNEWIEISAKTVDDAINEGLIRLGTTTDKMDVEVLEKESAGFLGFIGKHDAKIRVRFKEV = 0.105
• HMIMPSDATEAKLLGVLGNEPLHVDEIRNQAELPIEKVSAALALMELKGMVRQVGGMNYVAVR = 0.117
• HMSVISVETAKSKALAHAGLTASKVTFIENKLEWDDGRQVYDIEFYTSDYKEYDYTIDAVSGQVLEFDY = -1.13

----------
Method: soluble fraction after stress (log2 fold change); higher = more stays soluble; pooled small domains, quantitative proteomics
Condition notes: stress: 50 degC
Decide by soluble fraction (log2): equal to or exceeding -0.3 means yes (1), less means no (0).

• HMVIMDLIVNGEPKYVVGEQLHLILDELGYSGKHFVVELNGEILSKEAYTTTKLTAADRLEIVSFVGG = no (0)
• HMEPVIELGDRTLPIEITRHRRARRLTLRLAADGSAVRITLPHWARSAEATAFAHARRDWLAAQLAK = yes (1)
• HMDINLSENLVRLRHAKKLTQEQLADFLGVTKASVSKWETRQSLPDILLLPRLAAFYGVTVDELIGYEP = yes (1)
• HMRGETSYANDIIKRLKQANLIVVEGTLYPLLNRLKKDGLLHYEWRESQQGPPRKYYGLTEEGEA = yes (1)
• HMSSSDYDVYNKAINLMLNLLKEPKSIEEVTASLNITKSQAITWINRALNEGKIIKTNRPVRYVVNN = no (0)
• HMETITDRLNRRSLELNVSQADIIRTTGAGRGTVSGWFSGANAPSAKYLESLAVALKTSTTWLLSGKD = no (0)
• HMQRDDMQIDRLIQIVFLLLSRNNLTAKQLAEELGVSTRTIYRDINILSVAGIPITSQKGYGGGLSLLQG = no (0)
• HMLSSAAAIDRILAGGTAAMNHRQFDAALTSFNTVIEMRPDFAEGWNKRATLYYLIGEYERSIADVERTLA = yes (1)
• HMPDYAFEGVVIKLTHRDYDRWKAGFPDVDLPPYLTARDAWLSEQTPADRKNWFVSTATDLRNFQKREAI = no (0)
• HMATAADLLQSATGVPRSDALLLLAKLLGVAKERLIAHPETVVSEKTQATFSDWIERVRGGFPTTYLLG = yes (1)
• HMKNLKLVSNTDGIRIDSWLADEFEDYSRSYLRKLIDQDLVYVNGNKIKANYKLKKGDEISISIPEPE = yes (1)
• HMRAGALTTLTERERNVFDLVVTGHSNPEIARQLSIADVTVKTHVGHILSKLGVRDRVHLVIWAHRQGLAD = no (0)
• HMVLLGAAIRELRIQKGITIEELAEMSGLSTGLISKIERDLGNPSISSLRKISRALGVPTAFFFA = no (0)
• HMPTPASGSSGYINATNVNFRTGPATSYKSISKLAKNTAVTILGTSGNWYKVTVGSLGKNGYVFATYVTVS = no (0)
• HMSSVGELEVGNIFEGTVNSVRGGKVLLALGNGQMVLAQMDGRVNITPGSSMFFQVKSNDGETVAIRPYTG = yes (1)
• HMIPRGFSRYYILELLQKKPHTGKEIIDNAIKESGGRWNPSPGLIYPLLGRLLDENLIEETNDGKYK = no (0)
• HMKRLPMRKIRDVLRLSADGLSTRKIGVSLTIGRTTVQAYLDRAAEVDLSWPLPPEMSDTDLERLIYPR = no (0)

----------
Method: soluble fraction after stress (log2 fold change); higher = more stays soluble; pooled small domains, quantitative proteomics
Condition notes: stress: 50 degC
Decide by soluble fraction (log2): equal to or exceeding -0.07 means true, less means false.

• HMQLSMLPYGFARRHGVLLVEQDEQPTLIHRAGITATVIAEVQRVAGQIDAWRLVDDARFDQQLAEVYRD = false
• HMKPGWEDIFRMNQIQLEDAVRTVNRDDTLAPTKKAYLIQNLLASRWIVGNQLQAQKDKTTE = false
• HMKHKHHIIPKHKGGTDHPDNLIELTVEQHAKAHWVEFMLDGREEDYWAWKGLEGVASKKDIIYALSKR = true
• HMTTTPTSQMVTELRSRGWTLRALAQRLGVGHASINRWANGVTPDRDLVAALRALVASGEVP = false
• HMDNWAALLSEREVQVSRLVANGASNKEIADHLAITERTVKAHLTAVFEKLGVRDRLQLSLRVNGL = false
• HMTTTAGTAVVQTGNSGKLNLREQAYSNAGILGRYSNGTIVTVLQKGSAWSYVEVQGQKGYMMSKFLRFT = true
• HMKSLHSEVTDRIRQLIVESHLQPGQRVPELEISRDLGVSRTPIREALKVLAAEGLVELLPLRGAMVK = true
• HMVMNKQEFLKILRDTLQSQLSSRETENHVEYYRTYIEEQMREGKTEIEILDVLGDPRLIARTILET = false

----------
Method: soluble fraction after stress (log2 fold change); higher = more stays soluble; pooled small domains, quantitative proteomics
Condition notes: stress: 50 degC
Decide by soluble fraction (log2): equal to or exceeding -0.03 means 1 (yes), less means 0 (no).

- HMKLTKPQEVFIQELLKGSSQYEAYLKAYPSKKTWKRNSIDTEASKLFKNAKIKQRYEELLYNIREE: 0 (no)
- HMTSDADSLRDKTGYVAEQVTSKGGKVNLYDGGFDSLYSARSTGETISTGTEIRVVDPGGGNMLVVEPV: 1 (yes)
- HMKAKTYTVQYIDEGKIIKEEELEEGSIINAPEVTKEGHTFIGWYEGEEKYDVYEPITRNLILESKNEIN: 0 (no)
- HMAMDYTVVHSDRRTIAIQIQRDGRVVVRAPYAATAEDIRRVVDSHRDWVEKTVRRQQEQLAAS: 1 (yes)
- HMVAPKDIVMPSFVGKKYTDVVNTPNSSYTFEFKKDEKNSSDYAVGFIMDQKPKAGETVKSNATVTLIVSK: 1 (yes)
- HMNIFKLYEENIGPLTPMIADILKEDEAEFPDYWIREAIEIAVKKNARNWKYVHAVLESWQKE: 0 (no)
- HMAVGVFQKEDGYWGYRFSIIVDGKTIARRKFTDENGSKLRTKSEAVKARAAAMVAARMERVS: 0 (no)
- HMPDIFDRGTAHITDAASGVAITFTRTFRIPPEVTMTHKGGTVVAIARLVGSITTGGFTAVLENT: 0 (no)
- HMSTEDYLKTIYILESQQGVHGSDVARMLKVTRPTVSIALKALEQEGYVWMDESRLVHLTDSGLQIAKDT: 0 (no)
- HMENMETSDIVARYSNMPGGIIEAFHEIVDRHGFLSQEAIIEAARGFGISVAEAYGVATFYSMFS: 0 (no)
- HMTGVPYLVRVKITDLHIRSGPGTNYASKGFIAPGAYTIVEESTGQGAALWGKLKSGKGWIALGYTEK: 0 (no)
- HMNKNNLRNVSSKIRKSRRVLNLSQAELSKKLDISPSYLNLIESGKRPITVPLLIKLGNILGISLKDL: 0 (no)
- HMEVPVQYIKFKIPENHFWAKKKVADIILPPETLLVLLQRGSDKMIPDGETVLLPEDTLVLIAKAPG: 0 (no)
- HMNSTNYQVIITANGGLNIRAGASTAYARIGGYAKGTVVTILAESNGFGKTDKGWISLNYTSKDLD: 0 (no)
- HMNNLELSEEEKSVLTIIEKEGLIELDKLKTKLELSNKKWDKTLKFLTKNKLAKVVKNDNGLFVEL: 1 (yes)
- HMVSPEVEMLRAAVETMSERQKQVYELHYLRGFNVKETAAILGMSSPTVTAHKKRIMEIIKKFFE: 0 (no)
- HMQILLASHAELAKGILSAVELIAGTQQNLKAYSAYTEAVDVHFKDQMLQDLNKMDPEDEVIL: 1 (yes)
- HMDVLTARENEVLQLLAKGMSNKEIASVLVITEKTVKAHVSSILSKLNLSDRTQAALYAVKNGI: 0 (no)
- HMKPSNLTSDERTQLLAQLKTAMGSDQYNQLRRQVGEEKLLEYVLDNVPGIQEEILGNRAVQENIDLH: 1 (yes)
- HMGVAAEDPDEAEKGAHSLKSSAANVGAEVVRGLAGEIESAASSGDVEAVRTILPGLEDAYSQAITDLET: 1 (yes)
- HMLSVRNRMSDVLKSLDDGEFHRFESLFNLEEGRLGVVVTFLAMLELAKEMLVEIVQNESLGPIYLKSR: 0 (no)
- HMQQRTVEHVDTAVEALALSIGERAGVDLPYMAHLTGKTQEDLIEDLTGVIFPVPGTEPLRYVTADDYLS: 1 (yes)
- HMKDNIRSILEDIPNIGPGRRRALLKHFGSIEAIRRASLEDLIKVDGMNRNAALSIMEYFGM: 0 (no)
- HMENMRLILASNLRRIREERRLSLNKVSELTGVSKSMLGQIERGESNPTLQTVWKIANGLRVSLTDLTEVP: 0 (no)
- HMAEPSTSYTQFMDQAKEGKIKRVDVQGRTLTVTPTEGATYKITAPGDLWMVEDLRKAGVQVYGQP: 1 (yes)
- HMQPDYRVLYSNFSDKDGGAIVAALEKMNVPYKFSEGGSAILVPAGQVHQARLKLAADGLPK: 1 (yes)
- HMNNLNDIIEIIRIYAKNYARNNPSWNHSELINRIRDKALGEAEDYNIRLSEEDLALITELSLRGL: 0 (no)
- HMDPEARRRAILNAAIDVIVEKGAAALTHRAVAARAGVSLGSTTKYFSSIEDLRENAMDALVREMD: 0 (no)
- HMEYYEDEELDRFRGRNSDQYSDAEIEEFNEILTTLRSEEVAGWIRSLQLREIALPDELKDDVILLVG: 0 (no)
- HMTGESIPFSKFLSEVDSGRVINVEIQGNNISGLLSDGNKFKTYSPNYPNLVEILSEKEVSIVATPLE: 1 (yes)
- HMRDVVVVPDLSGLTQMEALSKLDAESLNIGEINYGVSEMPEGVIFKQDPVYGTELMKGDTVDIFISGR: 0 (no)
- HMKELTPEQLQHNWNNLRQFIDVNFSGDRLGGLNKMYDYFEERMMFAPASGKQHYHNAFAGGYVEHVMHV: 1 (yes)
- HMQAGNAVEQYPTIGRLEEVTLGRSQPGAPIGERLSTLETVVFKRNFNDDSLFDRTERLKKTILGG: 1 (yes)
